Provide the recorded IL6, Luminex (supernatant) for the entries that follow.
Target: T1, T cell receptor (TCR) Vγ9 (TRGV9) (human, UniProt Q99603 21-122); also: unit not given here
T1 sequence (looked up): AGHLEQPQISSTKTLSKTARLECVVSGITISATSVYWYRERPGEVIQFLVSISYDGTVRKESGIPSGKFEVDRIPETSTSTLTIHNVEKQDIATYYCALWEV
Assay: cell-based or functional assay

QUERY: Look at this binder and give its reported IL6, Luminex (supernatant). VG9B54 (antibody, human IgG1, kappa, V domains shown) VH: EVQLVESGGGLVKPGGSLRLSCAASGFAFSSYSLTWVRQAPGKGLEWVSSISSSSSYIFYADSVKGRFTISRDNAKNSLYLQMNSLRAEDTAVYYCATDGELGPFDYWGQGTTVTVSS VL: EIVMTQSPGTLSLSPGERATLSCRASQSVSSSYLAWFQQKPGQAPRRLIYGASSRATGIPDRFSGSGSGTDFTLTISRLEPEDFAVYYCQQYGRSPLTFGGGTKVEIKR
RESULT: 761

QUERY: Look at this binder and give its reported IL6, Luminex (supernatant). VG9B121 (antibody, human IgG1, kappa, V domains shown) VH: EVQLVESGGGLVKPGGSLRLSCVASGFTFSDYAMDWVRQAPGKGLDWISSISSTSNYIFYADSVKGRFTISRDNAKNSLYLQMNSLRVEDSAVYYCANSYNWNYGGAFDIWGQGTMVTVSS VL: DIQMTQSPGTLSSSPGERATLSCRASQSVSSSYFAWYQQKPGRAPRLLIYGASSRATGIPDRFSGSGSGTDFTLTISRLEPEDFAVYFCQQYGRSPLTFGGGTKVEIKR
RESULT: 161

QUERY: Look at this binder and give its reported IL6, Luminex (supernatant). VG9B195 (antibody, human IgG1, lambda, V domains shown) VH: EVQLVESGGGLVKPGGSLRLSCAASGFTFSPYTMNWVRQAPGKGLEWVSSISSSSSYMYYADSVKGRFTISRDNAKNSLYLQMNSLRAEDTAVYYCARDGDLVGPTYYFDYWGQGTLVTVSS VL: SYELMQPPSVSVSPGQTASITCSGDKLGDKYACWYQQKPGQSPVLVIYQHNKRPSGIPERFSGSNSGKTATLTISGTQAMDEADYYCQAWDSTTVVFGGGTKLTVLG
RESULT: 166

QUERY: Look at this binder and give its reported IL6, Luminex (supernatant). VG9B80 (antibody, human IgG1, kappa, V domains shown) VH: EVQLVQSGGGLVKSGGSLRLSCAASGFTFSTYSMNWVRQAPGKGLEWVSSISSSSSYIFYADSVKGRIIISRDNAKNSLYLQMNSVRADDTAVYYCAKDGELGVFDYWGQGTLVTVSS VL: EIVLTQSPGTLSLSAGERATLSCRASQSISSSYLAWYQQKPGQAPRVLIYGPSGRATGIPDRFRGSGSGTDFTLTISRLEPEDFAVYYCQQFGRSPLTFGGGTKVEIKR
RESULT: 385

QUERY: Look at this binder and give its reported IL6, Luminex (supernatant). VG9B46 (antibody, human IgG1, kappa, V domains shown) VH: EVQLVESGGGLVKPGGSLRLSCEASGFTFSINSMNWVRQAPGKGLEWVSSISSTSDYIFNADSVKGRFTISRDNAKNSLYLQMNSLRAEDTAVYYCVRDDVFGAFDIWGQGTMVTVSS VL: EIVLTQSPGTLSLSPGERATLSCRTSQSVSRSYLGWYQQKPGQPPRLLIFGSSSRATGIPDRFSGSGSGTDFTLTISRLEPEDFAVYYCQQYSRSPLTFGGGTKVDIKR
RESULT: 375
